Measured inhibition, listed per entry for reference.
System: Cholinesterase (Homo sapiens)
Sequence (P06276 whole entry): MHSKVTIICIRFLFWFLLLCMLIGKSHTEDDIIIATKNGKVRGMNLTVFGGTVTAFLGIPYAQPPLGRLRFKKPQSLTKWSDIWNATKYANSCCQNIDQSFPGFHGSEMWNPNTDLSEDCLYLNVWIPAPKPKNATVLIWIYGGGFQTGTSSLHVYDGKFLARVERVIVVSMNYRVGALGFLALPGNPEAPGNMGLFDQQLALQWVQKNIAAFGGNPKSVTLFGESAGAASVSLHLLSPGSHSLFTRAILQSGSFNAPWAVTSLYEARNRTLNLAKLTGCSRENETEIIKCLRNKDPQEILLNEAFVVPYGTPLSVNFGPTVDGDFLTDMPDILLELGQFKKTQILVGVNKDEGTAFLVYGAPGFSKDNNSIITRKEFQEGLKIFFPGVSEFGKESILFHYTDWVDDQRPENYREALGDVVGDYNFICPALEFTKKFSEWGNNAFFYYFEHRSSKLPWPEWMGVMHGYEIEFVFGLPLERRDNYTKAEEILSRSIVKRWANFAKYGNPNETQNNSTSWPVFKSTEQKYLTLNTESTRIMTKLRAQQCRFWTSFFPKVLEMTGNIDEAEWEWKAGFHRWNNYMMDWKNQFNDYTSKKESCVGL
Assay name: Inhibition of human serum BuChE using butyrylthiocholine iodide as substrate at 10 uM incubated for 10 mins followed by substrate addition by DTNB reagent based Ellman's method relative to control
The reply should contain only the number, in %.

| Compound | inhibition / % |
| --- | --- |
| COc1ccc2c3c1O[C@H]1C[C@@H](OC(=O)NCc4ccccc4F)C=C[C@@]31CCN(C)C2 | 18.4 |
| COc1ccc2c3c1O[C@H]1C[C@@H](OC(=O)NC4CCN(Cc5ccc(F)cc5)CC4)C=C[C@@]31CCN(C)C2 | 21 |
| COc1ccc2c3c1O[C@H]1C[C@@H](OC(=O)NCc4ccc([N+](=O)[O-])cc4)C=C[C@@]31CCN(C)C2 | 6.23 |
| COc1ccc2c3c1O[C@H]1C[C@@H](OCc4ccc(Cc5cccc(Cl)c5)cn4)C=C[C@@]31CCN(C)C2 | 90.5 |

Entry "COc1ccc2c3c1O[C@H]1C[C@@H](OCc4ccc(Cc5ccc(F)cc5)cn4)C=C[C@@]31CCN(C)C2" : reported inhibition = ?
90.3

Would you mind doing "COc1ccc2c3c1O[C@H]1C[C@@H](OC(=O)NC4CCN(Cc5ccc(C)cc5)CC4)C=C[C@@]31CCN(C)C2" as well?
28.7

Would you mind doing "COc1ccc(CNC(=O)O[C@H]2C=C[C@@]34CCN(C)Cc5ccc(OC)c(c53)O[C@H]4C2)cc1" as well?
2.97

Would you mind doing "COc1ccc2c3c1O[C@H]1C[C@@H](OC(=O)NC4CCN(Cc5ccccc5F)CC4)C=C[C@@]31CCN(C)C2" as well?
21.6

Would you mind doing "COc1ccc(Cc2ccc(CO[C@H]3C=C[C@@]45CCN(C)Cc6ccc(OC)c(c64)O[C@H]5C3)nc2)cc1" as well?
87

Would you mind doing "COc1ccc2c3c1O[C@H]1C[C@@H](OC(=O)NC4CCN(Cc5cccc(F)c5)CC4)C=C[C@@]31CCN(C)C2" as well?
18.6

Would you mind doing "COc1ccc2c3c1O[C@H]1C[C@@H](OC(=O)NCc4cc(F)cc(F)c4)C=C[C@@]31CCN(C)C2" as well?
4.56

Would you mind doing "COc1ccc2c3c1O[C@H]1C[C@@H](OCc4ccc(Cc5ccc(C)cc5)cn4)C=C[C@@]31CCN(C)C2" as well?
87.4

Would you mind doing "COc1ccc2c3c1O[C@H]1C[C@@H](OC(=O)NCc4ccc(C#N)cc4)C=C[C@@]31CCN(C)C2" as well?
2.57

Would you mind doing "COc1ccc2c3c1O[C@H]1C[C@@H](OCc4ccc(Cc5ccc(Cl)cc5)cn4)C=C[C@@]31CCN(C)C2" as well?
88.7

Would you mind doing "COc1ccc2c3c1O[C@H]1C[C@@H](OC(=O)NC4CCN(Cc5ccc(Cl)cc5)CC4)C=C[C@@]31CCN(C)C2" as well?
30.2

Would you mind doing "COc1ccc2c3c1O[C@H]1C[C@@H](OC(=O)NCc4ccc(F)cc4F)C=C[C@@]31CCN(C)C2" as well?
13.5

Would you mind doing "COc1ccccc1Cc1ccc(CO[C@H]2C=C[C@@]34CCN(C)Cc5ccc(OC)c(c53)O[C@H]4C2)nc1" as well?
84.4

Would you mind doing "COc1ccc2c3c1O[C@H]1C[C@@H](OCc4ccc(Cc5ccccc5)cn4)C=C[C@@]31CCN(C)C2" as well?
91.2

Would you mind doing "COc1ccc2c3c1O[C@H]1C[C@@H](OC(=O)NCc4ccccc4)C=C[C@@]31CCN(C)C2" as well?
10.4

Would you mind doing "COc1ccc2c3c1O[C@H]1C[C@@H](OCc4ccc(Cc5ccccc5F)cn4)C=C[C@@]31CCN(C)C2" as well?
96.5

Would you mind doing "COc1cc(CN2CCC(NC(=O)O[C@H]3C=C[C@@]45CCN(C)Cc6ccc(OC)c(c64)O[C@H]5C3)CC2)cc(OC)c1" as well?
12.9

Would you mind doing "COc1cccc(Cc2ccc(CO[C@H]3C=C[C@@]45CCN(C)Cc6ccc(OC)c(c64)O[C@H]5C3)nc2)c1" as well?
88.2

Origin of values: ChEMBL document CHEMBL6121005
